# Tested on: NCI-H226 lung
# test-method-notes: NCI tumour cell line growth inhibition, 48 h
For each record, write down the corresponding TGI.

Query string: Could you share what TGI was measured for N#CC(c1nc2ccccc2nc1Cl)S(=O)(=O)c1ccccc1 (stereo not given) , tested on NCI-H226 lung?
Result string: > 100 µM

Query string: # value lookup — system NCI-H226 lung, readout TGI, item "O=C(/C=C/c1ccc([N+](=O)[O-])cc1)c1ccc2c3c(cccc13)CC2"
Result string: > 100 µM

Query string: Query TGI on NCI-H226 lung for CCOc1cc(C2CC(c3ccc(NS(=O)(=O)c4cc([N+](=O)[O-])ccc4C)cc3)=NN2c2ccc([N+](=O)[O-])cc2[N+](=O)[O-])ccc1O (stereo not given)
Result string: 24 µM

Query string: Find the measured TGI: item "O=C(c1cc(Cl)ccc1Cl)N1CCN(C(=O)c2cc(Cl)ccc2Cl)CC1" , target or system NCI-H226 lung.
Result string: > 100 µM

Query string: Request: TGI, test system NCI-H226 lung, entry Nc1ccccc1CC(O)C(=O)O (stereo not given)
Result string: > 100 µM
